tested on: P. falciparum stage V gametocytes; assay: microbe, parasite or virus in culture; set-up: BacTiter-Glo ATP luminescence viability of purified stage V gametocytes in 384-well plates, per cent inhibition versus DMSO; details: Plasmodium falciparum, 48 h, read-out: % Inhibition
For each entry below, report its inhibition at 5 µM value.
Just the number in %, nothing appended.

Request: // fetch inhibition at 5 µM given entry CCCCCCCCNCC(O)c1ccc(Cl)c(Cl)c1 (centres unmarked)
Response: 17.7

Request: // fetch inhibition at 5 µM given entry O=c1c(NCCCN(Cc2ccc(F)cc2)c2ccccn2)c(NCc2ccncc2)c1=O
Response: 91.6

Request: // fetch inhibition at 5 µM given entry CC(C)(C)c1cc(Cl)cc(C(=O)Nc2cc([N+](=O)[O-])ccc2Cl)c1O
Response: 36.2

Request: // fetch inhibition at 5 µM given entry CN(C)c1ccc(C=Cc2ccc3ccccc3n2)c(Cl)c1
Response: 36.3

Request: // fetch inhibition at 5 µM given entry Cc1cc(NN=Cc2ccccc2Cl)c2cc(F)ccc2n1
Response: -39.2

###

system: P. falciparum stage V gametocytes; assay: microbe, parasite or virus in culture; set-up: BacTiter-Glo ATP luminescence viability of purified stage V gametocytes in 384-well plates, per cent inhibition versus DMSO; conditions: Plasmodium falciparum, 48 h, read-out: % Inhibition
measured.parameter: inhibition at 5 µM

Request: Give inhibition at 5 µM for Cc1ccccc1Nc1nc(NCCc2ccccc2)nc2ccccc12 tested on P. falciparum stage V gametocytes.
Response: 101%

Request: Give inhibition at 5 µM for N#Cc1ccc(S(=O)(=O)N2C(c3cccc([N+](=O)[O-])c3)C(C(=O)c3ccccc3)N(C3CCCCC3)C2c2cccc([N+](=O)[O-])c2)cc1 (stereo not drawn) tested on P. falciparum stage V gametocytes.
Response: 43.9%

Request: Give inhibition at 5 µM for COc1ccc(C=NNc2cc(C)nc3ccccc23)c(OC)c1 tested on P. falciparum stage V gametocytes.
Response: 98.4%

Request: Give inhibition at 5 µM for Cc1cc(NN=Cc2cccc(Cl)c2)c2cc(F)ccc2n1 tested on P. falciparum stage V gametocytes.
Response: -59.6%

Request: Give inhibition at 5 µM for COc1cccc2c(NN=Cc3ccccc3Cl)cc(C)nc12 tested on P. falciparum stage V gametocytes.
Response: 23.3%

Request: Give inhibition at 5 µM for Fc1ccc2nccc(NN=CC=Cc3ccccc3)c2c1 tested on P. falciparum stage V gametocytes.
Response: -73.4%

Request: Give inhibition at 5 µM for O=[N+]([O-])c1ccccc1C=NNc1ccnc2ccccc12 tested on P. falciparum stage V gametocytes.
Response: -47.5%

Request: Give inhibition at 5 µM for Cc1ccc(Cc2cnc(NCCSCc3ccc(CN4CCOCC4)o3)[nH]c2=O)cn1 tested on P. falciparum stage V gametocytes.
Response: -5.99%

Request: Give inhibition at 5 µM for COc1cccc2c(NN=Cc3ccccc3F)ccnc12 tested on P. falciparum stage V gametocytes.
Response: -26%

###

tested on: P. falciparum stage V gametocytes; experiment: microbe, parasite or virus in culture; set-up: BacTiter-Glo ATP luminescence viability of purified stage V gametocytes in 384-well plates, per cent inhibition versus DMSO; conditions: Plasmodium falciparum, 48 h, read-out: % Inhibition
measured.parameter: inhibition at 5 µM (%)
Just the number in %, nothing appended.

Request: // fetch inhibition at 5 µM given entry CCCC(C(=O)OCCNC)(c1ccccc1)c1ccccc1 [TCMDC-142275]
Response: 48.4

Request: // fetch inhibition at 5 µM given entry COc1cc(OC)c(OC)cc1C=NNc1cc(C)nc2ccccc12 [TCMDC-142198]
Response: 100

Request: // fetch inhibition at 5 µM given entry COc1cc2c(cc1OC)C(c1ccc(Br)cc1)CN(C)CC2 (stereo not drawn) [TCMDC-142272]
Response: 20.3

Request: // fetch inhibition at 5 µM given entry COc1cccc(C=NNc2cc(C)nc3c(OC)cccc23)c1 [TCMDC-142197]
Response: 92.7

Request: // fetch inhibition at 5 µM given entry Cc1cc(N/N=C/c2cccc([N+](=O)[O-])c2)c2ccc(F)cc2n1 [TCMDC-142169]
Response: 109

Request: // fetch inhibition at 5 µM given entry CCCCN(CCCC)CC(O)c1cc(-c2ccc(Cl)cc2)nc2c(Cl)cc(Cl)cc12 (stereo not drawn) [TCMDC-142268]
Response: -20.8

Request: // fetch inhibition at 5 µM given entry CCOc1ccc2c(NN=Cc3ccccc3F)cc(C)nc2c1 [TCMDC-142193]
Response: 98.2

Request: // fetch inhibition at 5 µM given entry COc1ccc2c(NN=Cc3ccccc3)cc(C)nc2c1 [TCMDC-142119]
Response: 7.88

Request: // fetch inhibition at 5 µM given entry COc1ccc2nccc(NN=Cc3cccc(Cl)c3)c2c1 [TCMDC-142125]
Response: 11.8

###

tested on: luciferase reaction (BacTiter-Glo); experiment: Interference assay (inhibition of the BacTiter-Glo luciferase reaction); type: biochemical; set-up: concentration or dose not given beside the values; conditions: ATP interference assay
For each entry below, report its % Control luminiscence value.
Please answer using the number first and the unit second.

Request: Give % Control luminiscence for COc1ccc(CNCCc2cccs2)cc1-c1cccc(S(=O)(=O)NCCN2CCCC2)c1 tested on luciferase reaction (BacTiter-Glo).
Response: 94%

Request: Give % Control luminiscence for COc1ccc2nc(-c3ccccc3)cc(NCCCNc3cc(-c4ccccc4)nc4ccc(OC)cc34)c2c1.Cl tested on luciferase reaction (BacTiter-Glo).
Response: 100%

Request: Give % Control luminiscence for COc1cccc(NC(=O)[C@H](C(C)C)n2c(=O)[nH]c3ccccc3c2=O)c1 tested on luciferase reaction (BacTiter-Glo).
Response: 100%

Request: Give % Control luminiscence for COc1ccc(CNCc2ccc(F)cc2)cc1-c1ccc(S(=O)(=O)NCCN2CCCC2)cc1 tested on luciferase reaction (BacTiter-Glo).
Response: 98%

###

For each entry below, report its IC50 value.
system: HepG2 cells; test: Cytotoxicity in HepG2 cells (intracellular ATP, ATPlite, 48 h); assay type: cell-based, human; settings: HepG2 cells; IC50 per ratio column head; unit inferred

Request: // fetch IC50 given entry CC(C)NCc1ccc(OCc2cccc(COc3ccc(CNC(C)C)cc3I)c2)c(I)c1 [TCMDC-137259]
Response: 4.9 µM

Request: // fetch IC50 given entry C#CCOc1ccc2ccccc2c1CNCCCCCCNCc1c(OCC#C)ccc2ccccc12 [TCMDC-137838]
Response: 3.19 µM

Request: // fetch IC50 given entry COc1ccc2ccccc2c1CNCCCCCCNCc1c(OC)ccc2ccccc12 [TCMDC-137915]
Response: 3.59 µM

Request: // fetch IC50 given entry C=CC(C)C1OC(=O)c2cc(OC)cc(OC)c21 (centres unmarked) [TCMDC-138676]
Response: 0.8 µM

Request: // fetch IC50 given entry CC1(C)CC(NCCCCCCCOc2ccc(OCc3ccccc3)cc2)CC(C)(C)N1 [TCMDC-138958]
Response: 3 µM

Request: // fetch IC50 given entry CN1CCN(CCCN(Cc2cccc(-c3cccc(CNC4CCCC4)c3)c2)C(=O)CCC2CCCC2)CC1 [TCMDC-140555]
Response: 7.5 µM

Request: // fetch IC50 given entry CN(C)CCCOc1ccc(CN2CCC(c3c[nH]c4ccc(NCC5CCCCC5)cc34)CC2)cc1 [TCMDC-140737]
Response: 6.8 µM

Request: // fetch IC50 given entry CN(C)CCN(Cc1ccccc1-c1ccc(CNCCc2ccccc2)cc1)C(=O)c1ccccc1 [TCMDC-140532]
Response: 7.54 µM

Request: // fetch IC50 given entry c1ccc(CSC2=NNC(c3ccccn3)S2)cc1 (centres unmarked) [TCMDC-123769]
Response: > 25 µM

Request: // fetch IC50 given entry CCN=C1NC2=C(CC(C(C)(C)C)CC2)C2(CCC(C(C)(C)C)CC2)S1 (centres unmarked) [TCMDC-131288]
Response: 14.3 µM

Request: // fetch IC50 given entry CN(C)c1ccc2c(c1)Sc1cc(N(C)C)ccc1N2C(=O)CCCC(=O)O [TCMDC-125778]
Response: > 25 µM

Request: // fetch IC50 given entry O=C(Nc1ccc(Oc2ccccc2)cc1)N(CCN1CCCC1)Cc1ccc(-c2ccc(CN3CCNCC3)cc2)cc1 [TCMDC-139652]
Response: 7.08 µM

Request: // fetch IC50 given entry CN1CCN(CCCN(Cc2cccc(-c3ccc(CNC4CCCC4)cc3)c2)C(=O)/C=C/c2ccccc2)CC1 [TCMDC-140544]
Response: 6.39 µM

Request: // fetch IC50 given entry Cc1cc(N[C@@H](Cc2ccccc2)C(=O)NCCc2ccccc2)nc(NCCc2ccccc2)n1 [TCMDC-134776]
Response: 13.6 µM

Request: // fetch IC50 given entry FC(F)(F)COc1ccc2ccccc2c1CCNCCCCNCCc1c(OCC(F)(F)F)ccc2ccccc12 [TCMDC-137317]
Response: 3.3 µM

Request: // fetch IC50 given entry O=C(Nc1ccc(Cl)c(Cl)c1)Nc1ccccc1N1CCNCC1 [TCMDC-133727]
Response: 11.2 µM

Request: // fetch IC50 given entry COc1ccc(CNCCCCCCNCc2ccc(OC)c3ccccc23)c2ccccc12 [TCMDC-137631]
Response: 3.06 µM
